SYSTEM: VEGFR2 and VLA-4 (Homo sapiens, UniProt P05556+P13612+P35968)
Construct: the α4-integrin (VLA-4), which is expressed on myeloma cells; endogenous in cells; host or cells: CAG human myeloma cells (HPSE^low / HPSE^high) plated on fibronectin
Sequence (P35968 20-1356): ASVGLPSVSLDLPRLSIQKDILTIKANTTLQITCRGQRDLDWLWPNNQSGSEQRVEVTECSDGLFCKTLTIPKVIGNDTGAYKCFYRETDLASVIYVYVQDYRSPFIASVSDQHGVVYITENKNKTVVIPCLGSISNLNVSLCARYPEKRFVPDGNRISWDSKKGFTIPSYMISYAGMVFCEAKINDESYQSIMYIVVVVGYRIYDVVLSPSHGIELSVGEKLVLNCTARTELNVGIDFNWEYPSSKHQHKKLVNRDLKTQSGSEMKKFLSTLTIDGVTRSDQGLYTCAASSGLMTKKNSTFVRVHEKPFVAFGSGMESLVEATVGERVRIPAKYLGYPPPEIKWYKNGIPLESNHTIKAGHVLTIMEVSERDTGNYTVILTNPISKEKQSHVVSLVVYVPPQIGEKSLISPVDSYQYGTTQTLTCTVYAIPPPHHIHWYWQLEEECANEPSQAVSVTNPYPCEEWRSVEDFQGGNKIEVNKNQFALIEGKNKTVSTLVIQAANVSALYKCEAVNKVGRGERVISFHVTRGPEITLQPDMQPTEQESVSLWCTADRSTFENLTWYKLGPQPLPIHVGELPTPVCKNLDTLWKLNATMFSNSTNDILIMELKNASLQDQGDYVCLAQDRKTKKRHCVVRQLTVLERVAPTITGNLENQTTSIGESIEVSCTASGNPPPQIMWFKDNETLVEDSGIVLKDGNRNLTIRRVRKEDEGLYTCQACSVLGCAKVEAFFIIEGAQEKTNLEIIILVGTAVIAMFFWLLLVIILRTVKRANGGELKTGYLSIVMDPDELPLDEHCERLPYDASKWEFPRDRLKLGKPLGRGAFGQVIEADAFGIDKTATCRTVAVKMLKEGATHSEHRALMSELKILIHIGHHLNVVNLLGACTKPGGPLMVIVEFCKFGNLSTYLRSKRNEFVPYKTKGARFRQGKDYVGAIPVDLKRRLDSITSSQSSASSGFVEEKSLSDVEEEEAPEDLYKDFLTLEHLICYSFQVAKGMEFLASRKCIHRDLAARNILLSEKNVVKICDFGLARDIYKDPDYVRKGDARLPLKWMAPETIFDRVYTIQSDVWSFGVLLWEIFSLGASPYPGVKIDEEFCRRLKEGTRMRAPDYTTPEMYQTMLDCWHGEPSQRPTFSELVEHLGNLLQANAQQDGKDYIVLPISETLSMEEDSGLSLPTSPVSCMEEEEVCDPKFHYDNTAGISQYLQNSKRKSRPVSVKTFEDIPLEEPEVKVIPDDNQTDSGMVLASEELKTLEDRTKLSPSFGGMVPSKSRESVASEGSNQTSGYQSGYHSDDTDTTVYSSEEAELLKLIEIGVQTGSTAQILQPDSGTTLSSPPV
Sequence (P13612 34-1032): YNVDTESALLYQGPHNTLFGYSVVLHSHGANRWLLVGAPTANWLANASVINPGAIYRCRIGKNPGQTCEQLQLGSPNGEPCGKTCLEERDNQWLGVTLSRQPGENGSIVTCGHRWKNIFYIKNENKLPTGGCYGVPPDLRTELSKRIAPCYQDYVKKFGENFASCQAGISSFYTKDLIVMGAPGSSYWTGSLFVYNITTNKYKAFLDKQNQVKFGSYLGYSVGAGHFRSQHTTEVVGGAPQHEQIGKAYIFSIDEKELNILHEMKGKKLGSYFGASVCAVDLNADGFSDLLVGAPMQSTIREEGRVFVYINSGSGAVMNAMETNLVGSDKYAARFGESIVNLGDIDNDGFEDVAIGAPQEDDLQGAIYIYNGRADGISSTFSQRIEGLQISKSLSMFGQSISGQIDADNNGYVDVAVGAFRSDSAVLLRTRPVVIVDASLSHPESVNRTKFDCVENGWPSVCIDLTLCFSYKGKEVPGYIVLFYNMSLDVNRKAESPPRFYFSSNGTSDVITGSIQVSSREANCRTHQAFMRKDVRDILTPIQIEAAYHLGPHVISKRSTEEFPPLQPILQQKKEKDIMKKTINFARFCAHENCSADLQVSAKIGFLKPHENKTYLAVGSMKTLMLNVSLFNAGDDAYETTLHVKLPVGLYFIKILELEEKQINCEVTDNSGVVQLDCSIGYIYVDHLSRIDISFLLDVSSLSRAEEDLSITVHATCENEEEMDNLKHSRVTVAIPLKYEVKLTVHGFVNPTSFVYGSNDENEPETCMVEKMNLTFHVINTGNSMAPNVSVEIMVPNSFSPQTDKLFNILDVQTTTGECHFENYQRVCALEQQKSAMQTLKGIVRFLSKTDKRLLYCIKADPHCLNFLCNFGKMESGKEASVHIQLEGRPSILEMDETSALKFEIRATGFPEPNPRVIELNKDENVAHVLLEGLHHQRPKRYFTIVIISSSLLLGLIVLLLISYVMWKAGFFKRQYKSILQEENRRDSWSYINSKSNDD
Sequence (P05556 21-798): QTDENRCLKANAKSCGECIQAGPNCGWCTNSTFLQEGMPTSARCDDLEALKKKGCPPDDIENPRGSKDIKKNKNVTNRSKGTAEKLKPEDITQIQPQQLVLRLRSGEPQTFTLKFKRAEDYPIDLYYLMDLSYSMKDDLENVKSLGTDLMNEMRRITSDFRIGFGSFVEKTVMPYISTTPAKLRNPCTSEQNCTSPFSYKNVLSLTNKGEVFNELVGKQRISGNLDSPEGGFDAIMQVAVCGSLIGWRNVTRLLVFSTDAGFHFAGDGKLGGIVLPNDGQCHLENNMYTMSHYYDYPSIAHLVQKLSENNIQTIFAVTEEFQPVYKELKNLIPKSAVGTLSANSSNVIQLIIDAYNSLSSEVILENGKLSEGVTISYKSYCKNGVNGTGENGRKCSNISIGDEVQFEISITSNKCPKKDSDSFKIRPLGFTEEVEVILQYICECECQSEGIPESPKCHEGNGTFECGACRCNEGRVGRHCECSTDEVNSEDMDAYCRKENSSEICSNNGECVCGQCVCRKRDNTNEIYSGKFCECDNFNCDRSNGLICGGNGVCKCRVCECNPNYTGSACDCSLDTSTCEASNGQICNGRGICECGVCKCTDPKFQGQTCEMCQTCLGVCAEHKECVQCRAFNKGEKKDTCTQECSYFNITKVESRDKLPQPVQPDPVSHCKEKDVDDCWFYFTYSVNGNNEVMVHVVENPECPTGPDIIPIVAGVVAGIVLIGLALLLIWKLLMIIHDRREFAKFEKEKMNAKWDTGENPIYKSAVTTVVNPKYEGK
EXPERIMENTAL DETAILS: Activation / inhibition of Sdc1-mediated coupling of VEGFR2 to VLA-4 (FIGS. 6A-H)
Assay type: cell-based
MEASUREMENT SETUP: read-out: IC50 as inhibitor of the VLA-4/VEGFR2 coupling mechanism
No end group written: not given here.
QUANTITY KIND: IC50 (µM)
Write the number in µM without appending the unit.

Fill in: IC50 of DFTFETSGENTAVVAVEPDRRNQSPVD [S1ED^210-236] is ___
10

Provenance of the data: patent US9878007B2
